target: first bromodomain of BRD4 (BRD4-BD1) (Homo sapiens, UniProt O60885); construct: the first bromodomain of BRD4 (BRD4-BD1); assay: AlphaLISA, acetylated peptide binding to BRD4-BD1
READOUT_KIND: IC50 (µM)

[1] CCC(=O)N1CCOc2c(cc(-c3ccc(OC)c(OC)c3)cc2OC[C@H]2CCCN(C)C2)C1 [I-CBP112]
[2] COc1ccc(CCc2nc3cc(-c4c(C)noc4C)ccc3n2C[C@H](C)N2CCOCC2)cc1Cl [SGC-CBP30]
Could you point out whether the larger IC50 belongs to 1 or to 2 ? Let me know the label of the one you choose. 1
